# Procedure details: oral PK study in Cynomolgus monkeys
# Type: in vivo
# Condition description: cynomolgus monkey, plasma, po, depending on dose and formulation, read-out: mean % F
Quantity: bioavailability

// bioavailability lookup, compound = C[C@H](CCOc1cccc(CC(=O)O)c1)N(Cc1cccc(C(F)(F)F)c1Cl)CC(c1ccccc1)c1ccccc1 , result: 6 to 19%

###

# Target under test: UniProt Q13133
# Sequence (Q13133 whole entry): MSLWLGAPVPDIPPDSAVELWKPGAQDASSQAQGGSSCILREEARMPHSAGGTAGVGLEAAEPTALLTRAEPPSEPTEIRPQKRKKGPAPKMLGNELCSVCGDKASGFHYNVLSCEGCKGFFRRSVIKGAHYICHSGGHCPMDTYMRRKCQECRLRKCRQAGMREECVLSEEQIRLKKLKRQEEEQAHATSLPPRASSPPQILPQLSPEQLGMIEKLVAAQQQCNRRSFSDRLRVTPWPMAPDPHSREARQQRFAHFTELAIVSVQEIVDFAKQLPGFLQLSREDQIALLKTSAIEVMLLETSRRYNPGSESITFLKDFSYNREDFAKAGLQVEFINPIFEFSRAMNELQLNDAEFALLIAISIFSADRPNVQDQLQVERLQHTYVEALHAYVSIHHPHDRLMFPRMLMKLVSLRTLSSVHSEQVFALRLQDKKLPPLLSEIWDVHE
# Procedure details: cell-based biosensor assay
# Condition description: read-out: median effective concentration (EC50) for LXRα
Quantity: pEC50
Quick note: pEC50 values are minus log10 of concentrations in mol/L.

For C[C@H](CCOc1cccc(CC(=O)O)c1)N(Cc1cccc(C(F)(F)F)c1Cl)CC(c1ccccc1)c1ccccc1 on UniProt Q13133, measured pEC50 was 6.47

###

# Target under test: CYP2C8 (Homo sapiens, UniProt P10632)
# Sequence (P10632 whole entry): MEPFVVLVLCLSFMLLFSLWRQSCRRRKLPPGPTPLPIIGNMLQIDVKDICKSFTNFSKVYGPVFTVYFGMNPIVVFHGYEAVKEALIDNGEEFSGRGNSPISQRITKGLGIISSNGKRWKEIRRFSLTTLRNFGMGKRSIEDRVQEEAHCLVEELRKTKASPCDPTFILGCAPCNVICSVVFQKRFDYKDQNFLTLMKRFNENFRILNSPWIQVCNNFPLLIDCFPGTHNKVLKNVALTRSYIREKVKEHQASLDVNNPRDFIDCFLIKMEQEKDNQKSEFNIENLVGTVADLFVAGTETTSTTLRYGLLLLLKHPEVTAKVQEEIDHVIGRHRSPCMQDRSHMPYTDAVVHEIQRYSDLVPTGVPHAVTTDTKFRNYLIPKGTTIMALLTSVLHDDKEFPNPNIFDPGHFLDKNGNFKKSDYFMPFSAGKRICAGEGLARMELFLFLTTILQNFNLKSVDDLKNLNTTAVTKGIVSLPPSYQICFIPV
# Procedure details: in vitro CYP450 inhibition
# Type: in vitro ADME
# Condition description: read-out: 50% inhibitory concentration [IC50] CYP2C8
Quantity: IC50 (µM)
API: value field is a number in µM; no unit string.

Noted for C[C@H](CCOc1cccc(CC(=O)O)c1)N(Cc1cccc(C(F)(F)F)c1Cl)CC(c1ccccc1)c1ccccc1 : its IC50 reads 7.5

###

# Target under test: UniProt:Q9Y6L6
# Sequence (Q9Y6L6 1-691): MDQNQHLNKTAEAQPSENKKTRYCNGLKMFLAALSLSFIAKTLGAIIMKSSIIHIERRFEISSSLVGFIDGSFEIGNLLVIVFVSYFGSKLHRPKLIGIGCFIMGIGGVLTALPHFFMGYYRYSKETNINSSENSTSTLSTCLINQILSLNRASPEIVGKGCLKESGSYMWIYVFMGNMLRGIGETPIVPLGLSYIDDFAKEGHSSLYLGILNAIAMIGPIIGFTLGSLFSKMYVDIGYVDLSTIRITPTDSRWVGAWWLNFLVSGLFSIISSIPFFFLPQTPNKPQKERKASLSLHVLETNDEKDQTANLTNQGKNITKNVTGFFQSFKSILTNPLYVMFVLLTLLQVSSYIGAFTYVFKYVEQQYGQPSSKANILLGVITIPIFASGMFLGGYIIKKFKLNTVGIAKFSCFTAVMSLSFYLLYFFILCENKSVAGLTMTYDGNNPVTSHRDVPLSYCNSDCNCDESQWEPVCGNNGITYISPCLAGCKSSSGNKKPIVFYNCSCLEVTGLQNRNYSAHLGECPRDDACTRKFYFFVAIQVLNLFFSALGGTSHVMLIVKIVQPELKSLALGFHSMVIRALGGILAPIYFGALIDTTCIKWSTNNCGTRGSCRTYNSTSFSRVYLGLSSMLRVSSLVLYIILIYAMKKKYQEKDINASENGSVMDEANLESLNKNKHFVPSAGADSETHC
# Procedure details: uptake transporter inhibition in vitro
# Condition description: read-out: IC50 OATP1B1
Quantity: IC50 (nM)
// return numeric value only (unit: nM, not printed)

IC50 reading for C[C@H](CCOc1cccc(CC(=O)O)c1)N(Cc1cccc(C(F)(F)F)c1Cl)CC(c1ccccc1)c1ccccc1 : 99

###

# Procedure details: oral PK study in Cynomolgus monkeys
# Type: in vivo
# Condition description: cynomolgus monkey, plasma, oral dose
Quantity: Tmax (h)
Please state the figure in h; there is no need to write the unit.

// Tmax lookup, compound = C[C@H](CCOc1cccc(CC(=O)O)c1)N(Cc1cccc(C(F)(F)F)c1Cl)CC(c1ccccc1)c1ccccc1 , result: 4
